System: K-562 leukemia
EXPERIMENT NOTES: NCI-60 one-dose screen, 48 h
SETUP CONDITIONS: 10 µM unless noted
This is part of a sample that, as a whole, favours compounds with a hit. Of some 83,000 tested, about 20% had one in any assay. Calls of active or inactive are those of the source. Rule for the calls: active = growth percent below 10; inactive = the rest.
Output constraint: value belongs to active, inactive

As a guide, the following entries are already answered.
In [3]: df
Out[3]:
                                   compound  class_assignment
0  COc1cc2c3c(c4c5ccccc5[nH]c4c2c(OC)c1OC)C(=O)N(CCN1CCCCC1)C3=O            active
1  CCN(CC)c1ccc(-c2cc(-c3cc(OC)c(OC)c(OC)c3)nc(N3CCC(O)CC3)c2C#N)cc1            active
2  CC1=C2[C@@H](CC1)[C@]1(C)O[C@@](C3CCNCC3)(C[C@H]1OC(=O)CO)[C@H]2OC(=O)/C=C/c1ccccc1          inactive
3                     Nc1ccc(Br)cc1C(F)(F)F          inactive
4  C=C(C)[C@@H]1CC[C@]2(C(=O)N3CCN(C)CC3)CC[C@]3(C)[C@H](CC[C@@H]4[C@@](C)(CCC(=O)O)[C@H](C(=C)C)CC[C@]43C)[C@@H]12          inactive

(Q) Please share the test call associated with COc1ccc(-c2nc3ccc(C)cc3c3c2c(=O)n(C)c(=O)n3C)cc1OC .
(A) inactive

(Q) # lookup: test call for O=C(NCCCCCCNC(=O)OCc1ccc2c(Cl)cc(Cl)c(O)c2n1)OCc1ccc2c(Cl)cc(Cl)c(O)c2n1
(A) active

(Q) Any idea what this test logged for COc1ccc(-c2cc(-c3cc(OC)ccc3OC)nc(SCC(C)=O)c2C#N)cc1 ?
(A) inactive

(Q) Would you mind telling me which call this test gave CCN1C(=O)N(CC)C2C1NN=c1s/c(=C\c3ccc(OC)cc3)c(=O)n12 (centres undefined) ?
(A) active

* * *

Tested on: SW-620 colon
EXPERIMENT NOTES: NCI-60 one-dose screen, 48 h
SETUP CONDITIONS: 10 µM unless noted
The panel holds about 83,000 compounds, 20% with a hit somewhere; the sample as a whole holds those more often. Activity calls are given as the source filed them. Rule for the calls: active = growth percent below 10; inactive = the rest.
Please state which outcome applies, choosing from active, inactive

                            chemical_smiles  class_assignment
0  Cc1ccc2cnc(N)c(C#Cc3cc(C(=O)Nc4ccc(CN5CCN(C)CC5)c(C(F)(F)F)c4)cnc3C)c2c1            active

Next compound, please.
(Q) Test call, this compound: C#CCOc1cccc(Nc2ncnc3cc(NC(=O)CCl)ccc23)c1
(A) active

* * *

Test system: M14 melanoma
EXPERIMENT NOTES: NCI-60 one-dose screen, 48 h (100 = growth as untreated, 0 = no growth, -100 = all killed)
SETUP CONDITIONS: 10 µM unless noted
Compounds without any hit were thinned out: in the full panel of roughly 83,000, 20% have a hit.
RECORDED METRIC: growth (%)
# value in %; strip the unit string

Query CC12OC(CC(O)C1O)n1c3ccccc3c3c4c(c5c6ccccc6n2c5c31)C(=O)N(CCN1CCCC1)C4=O (configuration not stated) yields growth of 19

The molecule listed as COc1ccc2[nH]cc(-c3nonc3-c3c[nH]c4ccc(Br)cc34)c2c1 has a reported growth of 31.8

The molecule listed as Cc1nc2sc(C(=O)Nc3cccc(Cl)c3C)c(N)c2cc1C(=O)/C=C/c1ccccc1 shows growth equal to -15.9

According to the records, this molecule O=C1c2cccnc2C(=O)c2c1c(C(=O)OCCc1ccccn1)c1ccccn21 displays growth of -70.5

The recorded growth for entry COc1ccc(/C=C(\C(=O)NCc2cccnc2)S(=O)(=O)c2ccccc2)cc1OC equals 28.8

get_value(item= CC(C)=CC(=O)N[C@H]1CC[C@]2(C)C3CC[C@]4(C)C(C(C)N(C)C)=CCC4C3CCC2[C@H]1O (some centres not stated) , readout=growth) returns -56.3

Item: COC12C=C/C(=C(/C(=O)OCCSc3ccnn3C)C(=O)CCCCCCCCC3(OC)C=C/C(=C(/C(=O)OCCSc4ccnn4C)C(=O)CCCCCCCC1)O3)O2 | growth: -3.79
